Values were extracted from a melting point compilation (Tetko et al.; mined from patent text by program, amines drawn as free bases though some values may be those of a salt).

The reader will find reported melting point values listed item by item below.

Consider the following illustrative entries.
CC12CCC(O)CC1CCC1C2CCC2(C)C(C(=O)COc3cccnc3)CCC12 (stereo not drawn)	63 to 66 °C
CCCCCCCCCCCCCCCCCCOc1cc(SC)cc(C(=O)O)c1	64 to 66 °C
COc1cccc2cc(CCl)oc12	44.5 to 45 °C
Cc1nnc2c(NC(N)=O)cc3cc(-c4ccc(CN5CCCCC5)cc4)ccc3n12	> 260 °C
CNC(=O)c1ccc(-c2ccc(NC(=O)NCc3cccnc3)cc2)nc1N	234 to 236 °C

Report melting point, nothing else, for this molecule: CCCCc1cc2cc(C(=O)NOCc3ccccc3)ccn2c1C(=O)c1ccc(OCCCN(CCCC)CCCC)cc1 118 to 119 °C

Identify measured melting point corresponding to CCOc1cccc(-c2nc3n(n2)Cc2ccccc2-3)c1 166 to 167 °C

Output melting point of C=CCCN1C(C)=C(C(=O)OC)C(c2ccccc2)C(C(=O)OC)=C1C 108 to 110 °C

For the molecule CC1(C(=O)CC#N)CC1 , give its measured melting point value. 32 to 33 °C

Item COc1cccc2c1OC(C(=O)N1CCC(NC(=O)Nc3ccccc3)CC1)CC2 (stereo not drawn) : provide melting point 215 to 216 °C

Provide measured melting point value, entry: O=C1OC(=Nc2ccc(F)cc2F)C2=C1CCCC2 81 to 84 °C

Query melting point for CC(=O)c1cc(CO)c(OCCCCC#N)cc1OCCCCC#N 98 to 99 °C

Identify measured melting point associated with COc1ccc(C(=O)Nc2ccccc2)cc1NCc1ccc(N(C)C)cc1 195 to 197 °C

Answer with the recorded melting point of COc1ccc(C(=O)c2ccccc2-c2ccc(C#N)cc2)cc1 only. 121 to 123 °C

Please supply the value of reported melting point for the item O=C1NCCCCC1c1cccc(OCc2ccccc2)c1 (stereo not drawn) 119 to 122 °C

---

metric: melting point

Below are worked cases with known answers.
CN1C(=O)N2CCSC2(c2ccccc2)C1=O (stereo not given)	100 to 102 °C
COc1cccc(COc2cc3c(cc2OC)C(=O)N(Cc2cccc(OC)c2)CC3)c1	85 to 86 °C
CCN1C=C(C(=O)O)C(=O)CC1c1ccccc1 (stereo not given)	148 to 150 °C
CN1CCC(C(=O)N2CCC(c3[nH]nc4c3C(=O)c3c(NC(=O)NN5CCOCC5)cccc3-4)CC2)CC1	148 to 150 °C

Provide melting point value for the following compound: CC1=Nc2c3cc(-c4ccccc4)nc-3ccn2C1 222 °C

Could you please provide reported melting point for NNC(=O)C=Cc1cc2ccccc2o1 ? Thanks! 173 to 174 °C

---

metric: melting point

These recorded examples may help you get a feel for the data.
CCn1c(=O)c2c(nc(/C=C/c3ccc(OC)c(C)c3OC)n2C)n(CC)c1=O	196 to 197 °C
COc1ccc2cc([C@H](C)C(=O)OCCS(=O)CCO)ccc2c1 (stereo partly specified)	74 to 86 °C
O=C(O)CCCOc1ccc(CCNC(=O)C2Cc3ccccc3N2S(=O)(=O)c2ccc(-c3cccc(C(F)(F)F)c3)cc2)cc1 (stereo unspecified)	70 °C
COc1cc2c(cc1OCCN(C)C)N(C(=O)c1ccc(-c3ccc(C#N)cc3C)cc1)CC2	167 to 171 °C
CC1=NC(NC(=O)Nc2cccc(Br)c2)C(=O)N(CC(=O)N2CC3CCC(CC3)C2)c2c(C)cccc21 (stereo unspecified)	168 to 171 °C
COc1ccc(N2CCN(Cc3ccc([N+](=O)[O-])cc3)CC2)cc1	130 to 132 °C

Please give measured melting point of the following entry: Cc1noc(NC(=O)N2CCN(c3nccc(-c4ccc(F)cc4)n3)CC2)c1C 226 to 227 °C

# return recorded melting point for input O=C(O)C1=c2ccccc2=CC=C2CC=CC=C21 129 °C

# return recorded melting point for entry COc1ccc(-c2cc(=O)n(CCc3ccc(Cl)cc3Cl)nc2-c2ccc(OC)cc2)cc1 119 to 120 °C

For the molecule CCCCOC1C=CC(=O)N1S(=O)(=O)c1ccccc1 (stereo unspecified) , report melting point. 66 to 67 °C

Check the records and state melting point for O=C(Nc1ccc(C(F)(F)F)cc1)C(=O)N1CCC(Cc2ccc(F)cc2)CC1 109 to 111 °C
